Each recorded value in this set is attributed to PubChem BioAssay (NCI).

Assay: NCI Yeast Anticancer Drug Screen. Data for the cln2 rad14 strain (AID 165);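 note: 0% = growth equal to vehicle treated cultures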
Conditions: S. cerevisiae cln2 rad14 strain, stronger effect = higher value; at 50.0 µM unless noted
Compounds without any hit were thinned out: in the full panel of roughly 79,000, 15% have a hit.
measured.quantity: growth inhibition (%)
Enter your answer as a number in %; do not include the unit.

Which growth inhibition is reported for this compound? O=C1C(N2CCCCC2)=C(c2ccccc2)c2ccccc21
-28.9

CCOC(=O)COc1cc2c(cc1C(CC)c1ccc(OC)cc1)OCO2 (stereo unspecified) ?
-20.1

Cc1ccccc1S(N)(=O)=O ?
-42.2

CC(C)(C)c1cc(-n2nc3ccccc3[n+]2[O-])c(O)c(C(C)(C)C)c1 ?
18.6

Cc1cc2c(c(C(=O)O)c1C)-c1cccc(Cl)c1C2=O ?
-20.2

CCCCCN1C(=O)c2ccccc2C1=O ?
5.15

O=C1CN(c2cccc(Cl)c2)C(=O)CN1/N=C/c1ccco1 ?
12.7

CCOC(=O)c1c(SCc2ccccc2)nc2c3ccccc3ccn12 ?
-1.15

CC(=O)Nc1ccc(NCC(=O)Nn2cnc3ccc(S(=O)(=O)Nc4ccc(NC(C)=O)cc4)cc3c2=O)cc1 ?
20.9

COc1ccc(NC(=O)c2ccc(OC)cc2)cc1 ?
1.95

###

Assay: NCI Yeast Anticancer Drug Screen. Data for the bub3 strain (AID 167)
Conditions: S. cerevisiae bub3 mutant strain, stronger effect = higher value; at 50.0 µM unless noted
The panel holds about 79,000 compounds, 15% with a hit somewhere; the sample as a whole holds those more often. Active and inactive are the calls of the source. No stated cut-off is given here; in the data, active means growth inhibition above about 70%; inactive means the rest.
measured.quantity: growth inhibition

CN1C(=O)C/C(=C/[N+](=O)[O-])c2ccccc21	3.3% (inactive)

Which growth inhibition is reported for this molecule? CSc1nc(SC)c2cnn(CC3CO3)c2n1 (stereo not drawn)
-20.1% (inactive)

ClC1c2cccc3cccc(c23)C1Cl (stereo not drawn) ?
7.5% (inactive)

C=C1C(=O)O[C@@H]2C[C@@H](C)[C@@H]3C=CC(=O)[C@@]3(C)[C@@H](OC(=O)CCCC(=O)O[C@H]3[C@@H]4C(=C)C(=O)O[C@@H]4C[C@@H](C)[C@@H]4C=CC(=O)[C@]43C)[C@H]12 ?
58% (inactive)

Cn1cc(C(=O)c2ccccc2)cc(C(=O)c2ccccc2)c1=O ?
-15.2% (inactive)

N#Cc1cccc2c1Nc1ccccc1S2 ?
5.9% (inactive)

[N-]=[N+]=Nc1ccc2nc(N)nc(N)c2c1 ?
-7.45% (inactive)

NC(=S)/N=C/c1c(O)c2ccccc2oc1=O ?
-12.7% (inactive)

COC(=O)c1cc(C(=O)OC)c(CC(=O)C(=O)NC2C3CC4CC(C3)CC2C4)nc1CC(=O)C(=O)NC1C2CC3CC(C2)CC1C3 (stereo not drawn) ?
13.7% (inactive)

Cn1c2c(c3ccccc31)CCN(CCCCN1CCN(c3ccccc3)CC1)C2=O ?
-11.2% (inactive)

Clc1ccc2c(c1)C(=P(c1ccccc1)(c1ccccc1)c1ccccc1)c1cc(Cl)cc(Cl)c1-2 ?
39.3% (inactive)

Cc1c(C(=O)CC(=O)C(=O)Nc2ccc(Cl)c(Cl)c2)[n+](=O)c2ccccc2n1[O-] ?
19.4% (inactive)

CCCCCCCCCCCCSC(=S)c1c(C)[nH]n(CCCCCCCCCCCC)c1=O ?
21.9% (inactive)

CCOC(=O)Cc1nc2nn(Cc3ccccc3)cc2c(=O)[nH]1 ?
-10.9% (inactive)

C(#Cc1ccccc1)CC#Cc1ccccc1 ?
-11.2% (inactive)

CCOC(=O)c1sc(C(=O)O)cc1-c1cccs1 ?
-10.6% (inactive)

Nn1nnc2ccccc21 ?
7.1% (inactive)

C=CCSc1cccc(C)c1 ?
-14.1% (inactive)
